biological target: T1, Recombinant soluble E protein (0.8E-His) from DENV-4 (DENV-4, UniProt P09866 280-674); experiment: SPR, Biacore T200
T1 construct: also called DENV-4 E protein; DV4
parameterMeasured: binding result

| binder | result |
| --- | --- |
| DG_3CH1046-SG182/3CL668-SK1 (antibody, V domains shown) VH: QVQLVQSGAEVKKPGASVKVSCKASGYTFTSYYMHWVRQAPGQGLEWMGVINPRGGSRRSAQKFQGRVTMTRDTSTSTVYMELSSLRSEDTAVYYCARGGRALFYDSYTTPFDGGSWWFDPWGQGSLVTVSS VL: DIQLTQSPSSLSASVGDRVTITCQASQDIRKYLNWYQQKPGKAPKLLIYDASNLKTGVPSRFSGSGSGTDFTLTISSLQPEDVATYYCQQFEDLPITFGQGTRLQIKR | binds |
| DG_3CH1049-SG182/3CL633-SK1 (antibody, V domains shown) VH: QVQLVQSGAEVKKPGASVKVSCKASGYTFTSYYMHWVRQAPGQGLEWMGVINPRGGSRRSAQKFQGRVTMTRDTSTSTVYMELSSLRSEDTAVYYCARGGEALFYDSYTTPFDGGSWWFDPWGQGSLVTVSS VL: DIQLTQSPSSLSASVGDRVTITCQASQDIRKYLNWYQQKPGKAPKLLIYDASNLKTGVPSRFSGSGSGTDFTLTISSLQPEDVATYYCQQFDDLPITFGQGTRLQIKR | binds |

Values from patent US20190218277A1
